- study.system: Human Leukocyte Lipoxygenase
- assay.text: Human Leukocyte Lipoxygenase Assay (LDA-H / LDAH)
- condition.notes: 50% reduction of reaction rate vs control, E -number means X 10^-no.
assay.endpoint: pIC50
pIC50 here: minus log base 10 of the concentration, concentration in moles per litre.

COc1ccc(CCc2ccc(NC(=O)C(=O)c3ccccc3O)cc2)cc1OC; 6.74
COc1cc(CCc2ccc(NC(=O)c3ccc(C)cc3O)cc2)ccc1O; 4.62
CCCCCCCCCCc1ccc(NC(=O)c2cccc(C)c2O)cc1; 6.17

# ---- query compound ----
Indicate the recorded pIC50 value for this compound: CC(C)(C)c1cccc(C(=O)C(=O)Nc2ccc(CCc3ccc(O)c(O)c3)cc2)c1O
5.41

The measurements presented in this section are drawn from patent US4939133A.
